assay: Primary qHTS for inhibitors of nuclear receptor binding SET domain protein 2 (NSD2) in an isogenic RCH-ACV NSD2 p.E1099K mutant (9B) (AID 1645876); settings: RCH-ACV (leukaemia line) NSD2 E1099K (9B) viability, CellTiter-Glo, 72 h; series mostly up to 44.9 µM; note: nearly all actives have a fitted effect of over 70% in size; note: potency is the fitted concentration of half-maximal effect
Inconclusive results are not listed. Activity calls are given as the source filed them. Calls come from the whole dose curve; as a rule, active = well fitted inhibition curve with a large enough effect; inconclusive = small, poorly fitted or top-dose-only effect; inactive = flat fitted curve, though single readings scatter.
MEASURED_ENDPOINT: Potency

COMPOUND	RESULT
CCC(=O)O[C@]1(C(=O)CO)CC[C@H]2[C@@H]3CCC4=CC(=O)CC[C@]4(C)[C@H]3CC[C@@]21C	inactive
CN1C(=O)[C@@H](NC(=O)c2n[nH]c(Cc3ccccc3)n2)COc2ccccc21	inactive
CCO[C@@H]1OC(=O)C[C@@H]1NC(=O)[C@@H]1CCCN2C(=O)CC[C@H](NC(=O)c3nccc4ccccc34)C(=O)N12	inactive
O=C(O)CNC(=O)c1nc(Cl)c2ccccc2c1O	inactive
CO[C@@H]1[C@@H](O)[C@H](O)[C@@H](n2c3c(Cl)cccc3c3c4c(c5c6cccc(Cl)c6[nH]c5c32)C(=O)NC4=O)O[C@H]1CO	0.934 µM (active)
O=C(/C=C/c1ccc(CN(CCO)CCc2c[nH]c3ccccc23)cc1)NO	0.132 µM (active)
O=C(/C=C\n1cnc(-c2cc(C(F)(F)F)cc(C(F)(F)F)c2)n1)NNc1ccccn1	3.72 µM (active)
CONC(=O)Nc1ccc(-c2sc3c(c2CN(C)Cc2ccccc2)c(=O)n(-c2ccccc2)c(=O)n3Cc2c(F)cccc2F)cc1	inactive
Cc1ccc(-c2nc(N)nc3c2nnn3Cc2cccc(CO[C@H]3CCOC3)n2)o1	inactive
CN(C)CCOc1ccc(-c2nc(-c3ccc4c(c3)CC/C4=N\O)c(-c3ccncc3)[nH]2)cc1	16.6 µM (active)
CCc1c(-c2ccccc2C)nc2c(C#N)c[nH]n2c1=O	inactive
CCCNC(=O)[C@H]1O[C@@H]1C(=O)N[C@H](C(=O)N1CCC[C@H]1C(=O)OC)C(C)CC (stereo partly specified)	6.61 µM (active)
Cc1cc(-c2cnn3c(NCC4CC(C)(O)C4)cc(Oc4cccnc4)nc23)ccc1C(=O)NC1CC1 (stereo unspecified)	0.148 µM (active)
COc1nc(N)nc2c1ncn2C1OC(CO)C(O)C1O (stereo unspecified)	5.25 µM (active)
Nc1nccc(-c2c(-c3ccc(F)cc3)ncn2C2CCN(Cc3ccon3)CC2)n1	7.42 µM (active)
CN(CCOc1ccc(C[C@H](Nc2ccccc2C(=O)c2ccccc2)C(=O)O)cc1)c1ccccn1	inactive
